The measurements presented in this section are drawn from patent US20250263469A1.

SUBJECT OF TEST: SARS-CoV-2 Spike A475V on pseudotyped virus (SARS-CoV-2, UniProt P0DTC2 14-1273)
TEST SUMMARY: cell-based or functional assay
PROPERTY LABEL: Potency change vs WT PsV (fold)
The reply should be a number in fold, with the unit left off.

**Query** Tell me the measured Potency change vs WT PsV of mAb 82 (antibody, V domains shown) VH: QVQLVQSGAEVKKPGASVKVSCKASGGSFSTSAFYWVRQAPGQGLEWMGWINPYTGGTNYAQKFQGRVTMTRDTSTSTVYMELSSLRSEDTAVYYCARSRALYGSGSYFDYWGQGTLVTVSS VL: DIQMTQSPSSLSASVGDRVTITCRASQVISNYLAWYQQKPGKAPKLLIYDASNLETGVPSRFSGSGSGTDFTLTISSLQPEDFATYYCQQSFSPPPTFGQGTRLEIKR , please.
**Result** -5.7
